What follows is a record of pIC50 for Peptidyl-prolyl cis-trans isomerase NIMA-interacting 1 (Homo sapiens).
pIC50: −log10 of the molar value. Where a SMILES comes first, the peptide text is derived from it. [ ]: non-standard residue; d: D form. The star is where a group is joined. alloThr(PO3H2) = C[C@H](OP(=O)(O)O)[C@H](N)C(=O)O; Biotin = O=C1N[C@H]2[C@H](CS[C@H]2CCCCC(=O)*)N1; pT = C[C@@H](OP(=O)(O)O)[C@H](N)C(=O)O; 2Nal = N[C@@H](Cc1ccc2ccccc2c1)C(=O)O; Bta = N[C@@H](Cc1csc2ccccc12)C(=O)O; Cha = N[C@@H](CC1CCCCC1)C(=O)O; Tle = CC(C)(C)[C@H](N)C(=O)O

molecule	observed.value
CC(=O)N[C@@H](CCCCNC(=O)CCCC[C@@H]1SC[C@@H]2NC(=O)N[C@@H]21)C(=O)N[C@@H](C)C(=O)N[C@@H](C)C(=O)N[C@@H](Cc1ccc2ccccc2c1)C(=O)N[C@H](C(=O)N1CCC[C@H]1C(=O)N[C@H](C(=O)N[C@@H](CCC(N)=O)C(N)=O)C(C)(C)C)[C@H](C)OP(=O)(O)O (Ac-K(Biotin)AA[2Nal][alloThr(PO3H2)]P[Tle]Q-NH2)	< 4.30
CC(=O)N[C@@H](CCCCNC(=O)CCCC[C@@H]1SC[C@@H]2NC(=O)N[C@@H]21)C(=O)N[C@@H](C)C(=O)N[C@@H](C)C(=O)N[C@@H](Cc1csc2ccccc12)C(=O)N[C@H](C(=O)N1CCC[C@H]1C(=O)N[C@@H](CC1CCCCC1)C(=O)N[C@@H](CCC(N)=O)C(N)=O)[C@@H](C)OP(=O)(O)O (Ac-K(Biotin)AA[Bta][pT]P[Cha]Q-NH2)	< 4.30

Switching to the query record.
Form: Entry = CC(=O)N[C@@H](CCCCNC(=O)CCCC[C@@H]1SC[C@@H]2NC(=O)N[C@@H]21)C(=O)N[C@@H](C)C(=O)N[C@@H](C)C(=O)N[C@@H](Cc1ccc2ccccc2c1)C(=O)N[C@H](C(=O)N1CCC[C@H]1C(=O)N[C@@H](CC1CCCCC1)C(=O)N[C@@H](CCC(N)=O)C(N)=O)[C@H](C)OP(=O)(O)O (Ac-K(Biotin)AA[2Nal][alloThr(PO3H2)]P[Cha]Q-NH2) | System = Peptidyl-prolyl cis-trans isomerase NIMA-interacting 1 (Homo sapiens) | pIC50 = ____ < 4.30
